Source of measurements: patent US9113629B2

# Tested on: Key Broadleaf Weed and Crop Species
# experimental.protocol: Post-emergent Test II herbicidal activity (Table 5)
# Assay type: in vivo
# condition.summary: post-emergence, 336 h; CHEAL: lambsquarters (Chenopodium album); application rate 70 g ai/ha; 14 days after application; read-out: Visual Growth Reduction (%) 14 Days After Application, CHEAL
readout: pest or weed control at 70 g/ha

Form: molecule = COC(=O)c1nc(-c2ccc(I)c(F)c2F)c(F)c(N)c1Cl ; pest or weed control at 70 g/ha = 95 to 100%

Value of pest or weed control at 70 g/ha reported for the molecule Nc1c(F)c(-c2ccc(C(F)(F)F)c(F)c2)nc(C(=O)O)c1Cl is 95 to 100%

Measured pest or weed control at 70 g/ha of COc1c(N)nc(-c2ccc(C(F)(F)F)c(F)c2)nc1C(=O)O : 85 to 94%

Input COC(=O)c1nc(-c2ccc(C#N)cc2)c(F)c(N)c1Cl . Output pest or weed control at 70 g/ha: 95 to 100%

Input COC(=O)c1nc(-c2ccc(I)cc2)c(F)c(N)c1Cl . Output pest or weed control at 70 g/ha: 95 to 100%

Lab note: C#Cc1ccc(-c2nc(C(=O)OC)c(Cl)c(N)c2F)cc1F gave pest or weed control at 70 g/ha of 95 to 100%

According to the records, this molecule COC(=O)c1nc(-c2ccc(C#N)cc2F)cc(N)c1Cl displays pest or weed control at 70 g/ha of 95 to 100%

Reported pest or weed control at 70 g/ha of C#Cc1ccc(-c2nc(N)c(OC)c(C(=O)OC)n2)c(F)c1F : 0 to 29%

Form field pest or weed control at 70 g/ha, entry COC(=O)c1nc(-c2ccc(F)cc2)c(F)c(N)c1Cl : 95 to 100%

The molecule Nc1c(F)c(-c2ccc(Br)c(F)c2F)nc(C(=O)O)c1Cl showed pest or weed control at 70 g/ha equal to 95 to 100%

Value of measured pest or weed control at 70 g/ha for the entry COC(=O)c1nc(-c2ccc(I)cc2F)nc(N)c1OC : 85 to 94%

The recorded pest or weed control at 70 g/ha for entry COC(=O)c1nc(-c2ccc(I)cc2)cc(N)c1Cl equals 95 to 100%

Value of measured pest or weed control at 70 g/ha for the entry COC(=O)c1nc(-c2ccc(Br)cc2)cc(N)c1Cl : 95 to 100%

response.value for COC(=O)c1nc(-c2ccc(C(F)F)c(F)c2)cc(N)c1Cl (field: pest or weed control at 70 g/ha) = 95 to 100%
